Test: Clearance in rat at 0.1 mg/kg, iv
Type: ADME, organism-based
Conditions: in vivo
recorded_metric: clearance (mL/min/kg)
Give the quantity in mL/min/kg, number only.

molecule	numeric_result
CC(C)(C(=O)O)c1ccc(Oc2cc(NC(=O)N3CCC(O)(C4CCCC4)C3)cc(Oc3ccc(F)cc3)c2)cc1 (racemic)	2.98

Next item in the queue.
input: Suppose we examine the molecule CC(C)CC1(O)CCN(C(=O)Nc2cc(Oc3ccc(F)cc3)cc(Oc3ccc(C(C)(C)C(=O)O)cc3)c2)C1 (racemic) ; what clearance value has been reported?
output: 3.04

* * *

Assay: Clearance in dog
Assay type: ADME, organism-based, Canis lupus familiaris
Conditions: in vivo
recorded_metric: clearance (mL/min/kg)
Give the quantity in mL/min/kg, number only.

input: Suppose we examine the compound CC(C)CC1(O)CCN(C(=O)Nc2cc(Oc3ccc(F)cc3)cc(Oc3ccc(C(C)(C)C(=O)O)cc3)c2)C1 (racemic) ; what clearance value has been reported?
output: 6.76
